Target Desc: Histone-arginine methyltransferase CARM1 (Homo sapiens) (UniProt Q86X55)
Sequence (Q86X55 whole entry): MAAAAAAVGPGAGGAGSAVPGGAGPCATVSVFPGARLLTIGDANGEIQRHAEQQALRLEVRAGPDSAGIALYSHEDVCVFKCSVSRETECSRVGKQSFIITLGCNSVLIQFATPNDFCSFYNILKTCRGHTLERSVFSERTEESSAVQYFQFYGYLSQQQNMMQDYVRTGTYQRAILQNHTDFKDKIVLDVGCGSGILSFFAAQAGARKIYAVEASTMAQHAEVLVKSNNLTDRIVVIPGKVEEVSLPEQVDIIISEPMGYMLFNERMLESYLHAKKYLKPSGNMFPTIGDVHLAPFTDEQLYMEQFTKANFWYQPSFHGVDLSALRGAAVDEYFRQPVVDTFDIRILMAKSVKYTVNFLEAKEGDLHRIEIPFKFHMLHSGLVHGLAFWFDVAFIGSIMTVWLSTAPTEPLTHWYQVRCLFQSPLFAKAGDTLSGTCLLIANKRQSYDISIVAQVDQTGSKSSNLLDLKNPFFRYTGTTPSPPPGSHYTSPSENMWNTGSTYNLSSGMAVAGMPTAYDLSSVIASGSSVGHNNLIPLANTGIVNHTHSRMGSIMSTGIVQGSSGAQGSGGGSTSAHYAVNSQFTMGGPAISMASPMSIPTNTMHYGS
Experiment Notes: Activity at PRMT4 (unknown origin) using [methyl-14C]AdoMet at 0.25 to 200 uM after 60 to 120 mins by tricine gel electrophoresis
The source made the active and inactive calls. No cut-off for these calls is given here. Starred links: 1 amine or outer side, 2 acyl side, 3 side chain; linkers in the order of their positions; H or OH if unused. Non-standard residues stand in square brackets, D forms with d. Residues, ends and D or L forms follow the SMILES beside them. X4 = NC(NCCC[C@H](N[*:1])C(=O)[*:2])=[N+]1CCCC1; X5 = N/C(=N\C1CC1)NCCC[C@H](N[*:1])C(=O)[*:2]
Measurement Kind: Activity

Compound	Measurement Kind	Measured Result
N=C(N)NCCC[C@H](NC(=O)CN)C(=O)N[C@@H](CCCCN)C(=O)N[C@@H](CCCCN)C(=O)N[C@@H](CCCN/C(N)=N/C1CC1)C(=O)N[C@@H](CCCNC(=N)N)C(=O)N[C@@H](CCC(N)=O)C(=O)N[C@@H](CCCNC(=N)N)C(=O)N[C@@H](CCCNC(=N)N)C(=O)N[C@@H](CCCNC(=N)N)C(=O)N1CCC[C@H]1C(=O)N1CCC[C@H]1C(=O)N[C@@H](CCC(N)=O)C(=O)O (H-GRKK[X5]RQRRRPPQ-OH)	Activity	Active
N=C(N)NCCC[C@H](NC(=O)CN)C(=O)N[C@@H](CCCCN)C(=O)N[C@@H](CCCCN)C(=O)N[C@@H](CCCNC(N)=[N+]1CCCC1)C(=O)N[C@@H](CCCNC(=N)N)C(=O)N[C@@H](CCC(N)=O)C(=O)N[C@@H](CCCNC(=N)N)C(=O)N[C@@H](CCCNC(=N)N)C(=O)N[C@@H](CCCNC(=N)N)C(=O)N1CCC[C@H]1C(=O)N1CCC[C@H]1C(=O)N[C@@H](CCC(N)=O)C(=O)O (H-GRKK[X4]RQRRRPPQ-OH)	Activity	Active
